src = the supplement of paper PMC7877785

- test-details: self-splicing fitness, log relative to wild type (ln ratio); higher = more splicing; Tetrahymena group I intron in knt gene, E. coli kanamycin selection, DiMSum; sequences stand for … in CUCUCU…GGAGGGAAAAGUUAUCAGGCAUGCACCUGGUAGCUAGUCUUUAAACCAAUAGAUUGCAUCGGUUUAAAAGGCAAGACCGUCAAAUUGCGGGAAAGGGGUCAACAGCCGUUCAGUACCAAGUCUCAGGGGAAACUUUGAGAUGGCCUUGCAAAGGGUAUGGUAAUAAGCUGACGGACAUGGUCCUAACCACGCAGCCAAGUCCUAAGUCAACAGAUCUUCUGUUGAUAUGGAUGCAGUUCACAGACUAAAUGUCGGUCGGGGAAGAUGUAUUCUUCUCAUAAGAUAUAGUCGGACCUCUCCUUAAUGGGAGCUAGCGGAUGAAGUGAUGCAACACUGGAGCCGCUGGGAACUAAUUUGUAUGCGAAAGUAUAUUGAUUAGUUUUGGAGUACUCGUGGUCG;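 further: selection with 25 µg/mL kanamycin versus none on LB agar overnight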
- details: 30 °C
Form field: self-splicing fitness (ln) (one value per entry).
Give your answer as a number; write no unit.

1) ACGCAGCAAUAUUACGAGCC -2.97
2) ACAGAGCAAUAUUACGGCUC -3.09
3) CCGAAGCAAUAUUACGCAUU -3.01

// self-splicing fitness (ln) lookup, sequence = GCGAAGCAAUAUUACGUCAA , result: -3.02

====

- test-details: self-splicing fitness, log relative to wild type (ln ratio); higher = more splicing; Tetrahymena group I intron in knt gene, E. coli kanamycin selection, DiMSum; sequences stand for … in CUCUCU…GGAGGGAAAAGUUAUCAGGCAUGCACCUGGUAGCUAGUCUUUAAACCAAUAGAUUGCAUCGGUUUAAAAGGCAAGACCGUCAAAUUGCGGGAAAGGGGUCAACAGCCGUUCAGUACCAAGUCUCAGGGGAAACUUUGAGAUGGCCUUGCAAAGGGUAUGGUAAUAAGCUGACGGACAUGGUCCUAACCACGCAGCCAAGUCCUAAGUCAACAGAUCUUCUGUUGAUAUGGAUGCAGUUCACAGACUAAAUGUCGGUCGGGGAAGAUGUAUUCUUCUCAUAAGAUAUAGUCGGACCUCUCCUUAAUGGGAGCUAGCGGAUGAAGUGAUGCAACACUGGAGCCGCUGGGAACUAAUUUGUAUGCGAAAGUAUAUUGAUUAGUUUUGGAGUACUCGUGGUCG
- details: 37 °C
Form field: self-splicing fitness (ln) (one value per entry).
Give your answer as a number; write no unit.

1. GUUCAGCAAUAUUACGAAAA 0.45
2. CAAGAGCAAUAUUACGGCCA -2.62

// self-splicing fitness (ln) lookup, sequence = GUGAAGCAAUAUUACGAGGC , result: -1.1

====

- test-details: self-splicing fitness, log relative to wild type (ln ratio); higher = more splicing; Tetrahymena group I intron in knt gene, E. coli kanamycin selection, DiMSum; sequences stand for … in CUCUCU…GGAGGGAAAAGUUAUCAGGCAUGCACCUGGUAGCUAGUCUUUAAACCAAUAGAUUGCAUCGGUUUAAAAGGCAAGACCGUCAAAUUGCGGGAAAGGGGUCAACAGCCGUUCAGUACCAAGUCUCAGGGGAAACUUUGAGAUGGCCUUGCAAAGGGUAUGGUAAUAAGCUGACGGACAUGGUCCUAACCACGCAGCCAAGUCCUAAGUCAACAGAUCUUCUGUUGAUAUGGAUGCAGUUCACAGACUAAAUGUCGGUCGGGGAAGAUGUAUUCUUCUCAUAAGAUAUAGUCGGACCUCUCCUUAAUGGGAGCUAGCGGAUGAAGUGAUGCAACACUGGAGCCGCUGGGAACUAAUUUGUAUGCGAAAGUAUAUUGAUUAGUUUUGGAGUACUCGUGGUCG
- details: 37 °C
Returns one of Fulfilled or Not fulfilled; Fulfilled when self-splicing fitness (ln) is >= -0.9.

1) GAUCAGCAAUAUUACGGCGC Fulfilled
2) GCGAAGCAAUAUUACGACUG Fulfilled
3) CGGGAGCAAUAUUACGCGAA Not fulfilled
4) UCGCAGCAAUAUUACGCUUU Not fulfilled
5) UCCUAGCAAUAUUACGCGAC Not fulfilled
6) GCUUAGCAAUAUUACGCGGG Not fulfilled
7) AUGCAGCAAUAUUACGGGGU Not fulfilled
8) UCUAAGCAAUAUUACGCCGG Fulfilled
9) UCGCAGCAAUAUUACGGCUG Not fulfilled
10) CCACAGCAAUAUUACGCUGA Not fulfilled

Is reported self-splicing fitness (ln) greater than or equal to -0.9 here: ACUUAGCAAUAUUACGGAGG
Not fulfilled

Is reported self-splicing fitness (ln) greater than or equal to -0.9 here: UUUUAGCAAUAUUACGUCUG
Fulfilled

Is reported self-splicing fitness (ln) greater than or equal to -0.9 here: AAUAAGCAAUAUUACGCCAU
Not fulfilled

Is reported self-splicing fitness (ln) greater than or equal to -0.9 here: GUUAAGCAAUAUUACGGUUA
Fulfilled

Is reported self-splicing fitness (ln) greater than or equal to -0.9 here: GGUAAGCAAUAUUACGACAC
Fulfilled

Is reported self-splicing fitness (ln) greater than or equal to -0.9 here: CUCUAGCAAUAUUACGACGA
Not fulfilled

Is reported self-splicing fitness (ln) greater than or equal to -0.9 here: UUAGAGCAAUAUUACGAAAG
Fulfilled

Is reported self-splicing fitness (ln) greater than or equal to -0.9 here: UGUCAGCAAUAUUACGACGC
Not fulfilled

====

- test-details: self-splicing fitness, log relative to wild type (ln ratio); higher = more splicing; Tetrahymena group I intron in knt gene, E. coli kanamycin selection, DiMSum; sequences stand for … in CUCUCU…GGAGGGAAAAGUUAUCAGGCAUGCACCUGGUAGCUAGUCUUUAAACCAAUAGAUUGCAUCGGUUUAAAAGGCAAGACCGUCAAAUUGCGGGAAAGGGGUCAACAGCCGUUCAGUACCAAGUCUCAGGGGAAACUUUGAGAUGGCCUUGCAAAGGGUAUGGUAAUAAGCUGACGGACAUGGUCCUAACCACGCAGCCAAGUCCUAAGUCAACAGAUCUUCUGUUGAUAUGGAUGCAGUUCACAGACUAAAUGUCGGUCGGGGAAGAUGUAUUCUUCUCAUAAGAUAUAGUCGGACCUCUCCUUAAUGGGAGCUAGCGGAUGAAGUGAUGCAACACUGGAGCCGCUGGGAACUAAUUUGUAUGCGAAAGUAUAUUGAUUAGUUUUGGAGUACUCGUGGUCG
- details: 37 °C
Returns one of Met or Not met; Met when self-splicing fitness (ln) is >= -2.

Past entries and their recorded results:
1) UGCGAGCAAUAUUACGUGUU Not met
2) GCUAAGCAAUAUUACGUAGG Met
3) CCCAAGCAAUAUUACGAUUC Not met
4) CUCUAGCAAUAUUACGCCCG Met
5) GAGUAGCAAUAUUACGCAAA Met
6) CUCAAGCAAUAUUACGCGGG Not met

Is reported self-splicing fitness (ln) greater than or equal to -2 here: UAGUAGCAAUAUUACGGAUA
Met

Is reported self-splicing fitness (ln) greater than or equal to -2 here: ACACAGCAAUAUUACGCCUU
Met

====

- test-details: self-splicing fitness, log relative to wild type (ln ratio); higher = more splicing; Tetrahymena group I intron in knt gene, E. coli kanamycin selection, DiMSum; sequences stand for … in CUCUCU…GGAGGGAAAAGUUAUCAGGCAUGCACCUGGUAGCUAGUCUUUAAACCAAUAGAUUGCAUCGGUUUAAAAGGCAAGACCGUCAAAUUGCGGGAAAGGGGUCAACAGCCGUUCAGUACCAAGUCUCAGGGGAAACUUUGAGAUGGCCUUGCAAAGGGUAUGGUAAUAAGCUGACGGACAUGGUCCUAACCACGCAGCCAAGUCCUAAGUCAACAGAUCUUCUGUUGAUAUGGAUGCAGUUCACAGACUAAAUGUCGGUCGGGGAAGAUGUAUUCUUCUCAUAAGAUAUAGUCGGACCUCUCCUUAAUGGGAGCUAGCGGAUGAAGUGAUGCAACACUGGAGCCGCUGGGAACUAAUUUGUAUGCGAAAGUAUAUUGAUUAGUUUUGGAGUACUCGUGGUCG
- details: 37 °C
Form field: self-splicing fitness (ln) (one value per entry).
Give your answer as a number; write no unit.

1. AGAUAGCAAUAUUACGAGUG -1.22
2. GUGGAGCAAUAUUACGGAUC -0.583

Below: the item to evaluate.
// self-splicing fitness (ln) lookup, sequence = CGAUAGCAAUAUUACGGCGA , result: -1.11

====

Form field: self-splicing fitness (ln) (one value per entry).
- test-details: self-splicing fitness, log relative to wild type (ln ratio); higher = more splicing; Tetrahymena group I intron in knt gene, E. coli kanamycin selection, DiMSum; sequences stand for … in CUCUCU…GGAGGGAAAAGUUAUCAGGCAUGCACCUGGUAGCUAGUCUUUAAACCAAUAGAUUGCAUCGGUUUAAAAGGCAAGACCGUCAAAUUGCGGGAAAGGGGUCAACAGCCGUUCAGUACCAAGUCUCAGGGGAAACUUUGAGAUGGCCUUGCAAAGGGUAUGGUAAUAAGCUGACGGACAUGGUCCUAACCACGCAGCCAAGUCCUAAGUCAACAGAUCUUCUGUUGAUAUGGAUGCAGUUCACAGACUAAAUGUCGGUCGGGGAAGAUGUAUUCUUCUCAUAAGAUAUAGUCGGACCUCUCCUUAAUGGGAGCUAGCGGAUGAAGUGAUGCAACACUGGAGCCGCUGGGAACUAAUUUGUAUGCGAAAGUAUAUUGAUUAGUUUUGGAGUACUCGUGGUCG
- details: 30 °C

Examples with answers:
1) GCACAGCAAUAUUACGCAUC -1.07
2) UCGCAGCAAUAUUACGUCCA -0.754
3) GCCGAGCAAUAUUACGUGGA -1.68
4) GUUGAGCAAUAUUACGCCGA -2.15
5) ACCCAGCAAUAUUACGCCCA -0.605
6) AAGGAGCAAUAUUACGUAAA -2.81
7) CCGCAGCAAUAUUACGUGGA -3.51
8) GAACAGCAAUAUUACGACCG -1.25
9) GUGGAGCAAUAUUACGACAU -2.4

// self-splicing fitness (ln) lookup, sequence = GACGAGCAAUAUUACGGUAC , result: -1.99
